- Tested on: G144 R700
- Assay comment: MTT assay, TMZ-resistant clone G144 R700
- Format: cell-based
- Run conditions: Homo sapiens, 72 hours
pIC50: −log10 of the molar value.
Recorded metric: pIC50

Task: Please indicate pIC50 recorded for C=C1C2CCC(C)(C3COc4c(C)c(OC)c5c(c4C3O)C(O)OC5=O)C1CCC2(C)C (stereo not shown)
Result: 5.35 to 5.47

* * *

- Tested on: T98G
- Assay comment: MTT-based cytotoxicity assay, T98G
- Type: cell-based
- Run conditions: Homo sapiens, 72 h
Recorded metric: pIC50
Numbers only, as −log10 of the molar value.

Task: Please indicate pIC50 recorded for O=NN(CCCl)C(=O)NCCCl [BCNU, carmustine, reference compound]
Result: 3.30

These entries and their values trace back to patent EP4349409A1.
